TARGET OF ASSAY: human δ-opioid receptor, OPRD (Homo sapiens, UniProt P41143)
Construct: host or cells: HEK-293 overexpressing β-arrestin2 fused to a β-galactosidase fragment
Sequence (P41143 whole entry, the tested form may be a part): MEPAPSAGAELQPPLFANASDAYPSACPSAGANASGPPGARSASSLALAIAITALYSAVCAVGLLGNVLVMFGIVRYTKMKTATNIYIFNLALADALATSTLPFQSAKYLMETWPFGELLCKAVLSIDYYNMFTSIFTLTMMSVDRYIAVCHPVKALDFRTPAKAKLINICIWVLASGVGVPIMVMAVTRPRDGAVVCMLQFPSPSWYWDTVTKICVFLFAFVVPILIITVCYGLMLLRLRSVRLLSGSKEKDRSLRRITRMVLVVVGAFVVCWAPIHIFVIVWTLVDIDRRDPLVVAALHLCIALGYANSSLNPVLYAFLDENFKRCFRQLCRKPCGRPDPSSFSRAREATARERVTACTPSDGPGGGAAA
EXPERIMENT: PathHunter β-arrestin 2 assay, OPRD cell line
Assay type: cell-based
RUN CONDITIONS: Table 1; normalized to reference agonist SNC80; read-out: OPRD arrestin Emax, %
ASSAY ENDPOINT: Emax (%)

# COMPOUND, TARGET OF ASSAY, UNITS, ASSAY RESULT
measured = [
    ("COc1ccsc1CNCC[C@@]1(c2ccccn2)CCOC2(CCCC2)C1 [TRV130, reference compound]", "human δ-opioid receptor, OPRD (Homo sapiens, UniProt P41143)", "%", 9.6),
    ("Cc1ccccc1NC(=O)NCC(c1ccc2c(c1)CCO2)N(C)C (racemic) [Compound 3]", "human δ-opioid receptor, OPRD (Homo sapiens, UniProt P41143)", "%", 1.99),
    ("CN1CCc2cc(C(CNC(=O)Nc3ccc(F)cc3)N(C)C)ccc21 (racemic) [Compound 2]", "human δ-opioid receptor, OPRD (Homo sapiens, UniProt P41143)", "%", 4.66),
    ("CN(C)C(CNC(=O)Cc1ccc2c(c1)OCCO2)c1ccccc1 (racemic) [Compound 1]", "human δ-opioid receptor, OPRD (Homo sapiens, UniProt P41143)", "%", 7.37),
]

---

TARGET OF ASSAY: human μ-opioid receptor, OPRM (Homo sapiens)
Construct: host or cells: HEK-293 overexpressing β-arrestin2 fused to a β-galactosidase fragment
EXPERIMENT: Dominant assay: cAMP assay with/without irreversible antagonist β-FNA, OPRM cell line; also: test concentration or dose not given here
Type: cell-based
RUN CONDITIONS: addition of β-FNA; Example 3, Tables 5-7; read-out: OPRM Gi β-FNA (+) Emax (%)
Listed compounds paired with reported Emax

# COMPOUND, Emax [%]
data = [
    ("CN1CCc2cc(C(CNC(=O)Nc3ccc(F)cc3)N(C)C)ccc21 (racemic) [Compound 2]", 80.1),
    ("CN(C)C(CNC(=O)Cc1ccc2c(c1)OCCO2)c1ccccc1 (racemic) [Compound 1]", 88.2),
    ("COc1ccsc1CNCC[C@@]1(c2ccccn2)CCOC2(CCCC2)C1 [TRV130, reference compound]", 56.3),
    ("CN(C)C(CNC(=O)Cc1ccc2c(c1)OCCO2)c1ccccc1 (single isomer, unassigned) [Compound 4]", 24.6),
    ("Cc1ccccc1NC(=O)NCC(c1ccc2c(c1)CCO2)N(C)C (single isomer, unassigned) [Compound 8]", 43.2),
    ("CN1CCc2cc(C(CNC(=O)Nc3ccc(F)cc3)N(C)C)ccc21 (single isomer, unassigned) [Compound 6]", 77),
    ("Cc1ccccc1NC(=O)NCC(c1ccc2c(c1)CCO2)N(C)C (racemic) [Compound 3]", 91.3),
]

---

TARGET OF ASSAY: human μ-opioid receptor, OPRM (Homo sapiens, UniProt P35372)
Construct: host or cells: HEK-293 overexpressing β-arrestin2 fused to a β-galactosidase fragment
Sequence (P35372 whole entry, the tested form may be a part): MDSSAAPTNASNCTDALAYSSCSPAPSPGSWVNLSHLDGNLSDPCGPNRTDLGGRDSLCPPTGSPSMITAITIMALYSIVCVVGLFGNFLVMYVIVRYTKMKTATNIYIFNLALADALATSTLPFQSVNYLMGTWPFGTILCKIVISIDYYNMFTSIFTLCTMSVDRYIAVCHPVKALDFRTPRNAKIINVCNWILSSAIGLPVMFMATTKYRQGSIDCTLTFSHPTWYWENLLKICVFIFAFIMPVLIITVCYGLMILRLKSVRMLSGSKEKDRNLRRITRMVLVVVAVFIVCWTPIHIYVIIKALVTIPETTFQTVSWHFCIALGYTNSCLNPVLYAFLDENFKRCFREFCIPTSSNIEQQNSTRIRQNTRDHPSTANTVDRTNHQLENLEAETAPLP
EXPERIMENT: PathHunter β-arrestin 2 assay, OPRM cell line
Type: cell-based
RUN CONDITIONS: Table 1; normalized to reference agonist DAMGO; read-out: OPRM arrestin Emax, %
Readings of Emax for the listed compounds
ASSAY ENDPOINT: Emax

# COMPOUND, ASSAY ENDPOINT, ASSAY RESULT
data = [
    ("COc1ccsc1CNCC[C@@]1(c2ccccn2)CCOC2(CCCC2)C1 [TRV130, reference compound]", "Emax", "2.41%"),
    ("CN(C)C(CNC(=O)Cc1ccc2c(c1)OCCO2)c1ccccc1 (racemic)", "Emax", "12.9%"),
    ("CN1CCc2cc(C(CNC(=O)Nc3ccc(F)cc3)N(C)C)ccc21 (racemic)", "Emax", "15.3%"),
    ("Cc1ccccc1NC(=O)NCC(c1ccc2c(c1)CCO2)N(C)C (racemic)", "Emax", "12.2%"),
]
